Molecular target: HLA-A2.1 MHC class I molecules on T2 cells (human)
Test: T2 cells pulsed with peptide, anti-HLA-A2.1 flow cytometry; Brefeldin A treatment: Overnight
metric.name: binding score (HLA-A2.1 fluorescence on T2 cells)

{"columns": ["binder", "value.reported"],
 "data": [
  ["KLMSPKLYV (Synthetic nonamer) [CD19 peptide KLMSPKLYV (SEQ ID NO: 4)]", 540]
]}

1. FIRAHTPYI (Synthetic nonamer) [CD20 peptide FIRAHTPYI (SEQ ID NO: 8)]
2. LLFLTPMEV (Synthetic nonamer) [CD19 peptide LLFLTPMEV (SEQ ID NO: 3)]
Exercise: Select the item whose binding score (HLA-A2.1 fluorescence on T2 cells) value is smaller, choosing between 1 and 2 . Indicate your choice by writing its label.
Solution: 1
(1: 250, 2: 453)
